target: Alpha-2C adrenergic receptor (Homo sapiens) (UniProt P18825); assay: compounds altering alpha2C-coupled GIRK flux – cell-based, HEK293 alpha2C/GIRK1/2, thallium flux, primary screen (AID 624); details: thallium flux BTC fluorescence, at 10 µM, actives lie on both sides;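 note: slope of fluorescence ratio to pre-addition baseline per second over 15 to 24 s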
Sequence (P18825 whole entry, looked up): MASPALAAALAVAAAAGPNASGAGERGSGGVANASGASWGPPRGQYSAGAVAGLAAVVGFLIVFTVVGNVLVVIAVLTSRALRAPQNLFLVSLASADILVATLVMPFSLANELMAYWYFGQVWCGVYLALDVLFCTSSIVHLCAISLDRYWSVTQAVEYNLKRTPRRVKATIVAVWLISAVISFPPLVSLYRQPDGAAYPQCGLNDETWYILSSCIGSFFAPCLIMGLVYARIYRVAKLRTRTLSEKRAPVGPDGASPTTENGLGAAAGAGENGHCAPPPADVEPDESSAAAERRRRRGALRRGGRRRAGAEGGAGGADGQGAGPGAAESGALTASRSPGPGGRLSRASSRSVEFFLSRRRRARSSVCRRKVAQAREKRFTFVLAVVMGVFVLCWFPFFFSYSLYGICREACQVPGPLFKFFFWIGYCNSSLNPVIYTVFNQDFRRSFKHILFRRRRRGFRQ
measured.property: slope

compound	result.value
COc1ccc(Cl)cc1-c1n[nH]c(=S)o1	0.00602
COc1cc2c(cc1OC)C(c1cccnc1)CC(=O)N2 (stereo not given)	0.00629
COc1cc(C(=O)Nc2cccc(-c3nncn3C)c2)cc(OC)c1OC	0.00614
CCCN1C2CCCC1CC(NC(=O)Nc1cccc(C(C)=O)c1)C2 (stereo not given)	0.00567
CC1CCCCC1NC(=O)CCCc1nc2ccccc2c(=O)[nH]1 (stereo not given)	0.00379
O=c1c2c(-c3ccccc3)csc2nc2n1CCC2	0.00513
Cc1ccnc(NC(=O)C2CCC(CNc3c(N4CCCC4)c(=O)c3=O)CC2)c1 (stereo not given)	0.00671
Cc1ccccc1N1C(N)=NC(N)=NC1(C)C	0.00605
O=C(CN1CCCN(S(=O)(=O)c2ccc(F)cc2)CC1)Nc1ccccc1Br	0.00558
Cn1c(SCC(=O)c2cc3ccccc3o2)nnc1-c1ccccc1	0.00718
COCCn1c(C)cc(C(=O)CSc2nc3ccccc3c(=O)[nH]2)c1C	0.00437
Cn1cccc1Cc1nnc(SCC(=O)Nc2ccccc2F)n1-c1ccc(F)cc1	0.00608
CCCOc1ccc(S(=O)(=O)NCCCN2CCOCC2)c2ccccc12	0.00402
COC(=O)c1ccccc1NC1c2ccccc2C(=O)N1c1cccnc1 (stereo not given)	0.00566
COC(=O)[C@H](C)NC(=O)NCc1ccc(F)cc1	0.00843
